Attribution: ChEMBL document CHEMBL1122642

target.or.test.system: GABA-A receptor; anion channel
method.summary: In vitro inhibition of [3H]diazepam binding to rat cerebral cortical membrane benzodiazepine receptors
parameter: Ki (µM)
The figure you give is taken to be in µM; do not add the unit.

Worked examples follow.
>  <compound>
CC(=O)c1cc2c3ccccc3nc-2c[nH]1

>  <reading.unit>
µM

>  <Ki>
0.058

$$$$
>  <compound>
OCc1cc2c3ccccc3nc-2c[nH]1

>  <reading.unit>
µM

>  <Ki>
1.47

$$$$
>  <compound>
COC(=O)c1cc2cc(OC)c(OC)cc2cn1

>  <reading.unit>
µM

>  <Ki>
10

$$$$
>  <compound>
COC(=O)C1Cc2cc(OC)c(OC)cc2CN1 (centres undefined)

>  <reading.unit>
µM

>  <Ki>
32

$$$$
>  <compound>
CCOC(=O)c1cc2c(cn1)[nH]c1ccccc12

>  <reading.unit>
µM

>  <Ki>
0.001

$$$$
>  <compound>
COC(=O)c1cc2c(cn1)[nH]c1ccccc12 [BETA-CCM]

>  <reading.unit>
µM

>  <Ki>
0.001

$$$$
>  <compound>
CC(=O)OCc1cc2c3ccccc3nc-2c[nH]1

>  <reading.unit>
µM

>  <Ki>
750

$$$$
>  <compound>
COC(=O)c1cc2c3ccccc3n3c(=O)ccc(n1)c23

>  <reading.unit>
µM

>  <Ki>
0.1

$$$$

What measured Ki goes with O=c1ccc2nccc3c4ccccc4n1c23 [CANTHIN-6-ONE] ?
10

----------
method.summary: In vitro binding to GABA-A benzodiazepine receptor of rat cerebral cortical membranes
parameter: Kd (µM)
Quick note: give the figure in µM, leave out the unit.

GET /values?readout=Kd&item= CN1C(=O)CN=C(c2ccccc2)c2cc(Cl)ccc21
5.6

----------
target.or.test.system: GABA-A receptor; anion channel
method.summary: In vitro inhibition of [3H]diazepam binding to rat cerebral cortical membrane benzodiazepine receptors
Attribute: pKi
# pKi = -log10(concentration in molar units)

Worked examples follow.
>  <compound>
O=C1CCC2c3c(c4ccccc4n31)CCN2Cc1ccccc1 (stereo unspecified)

>  <target.or.test.system>
GABA-A receptor; anion channel

>  <pKi>
4.95

$$$$
>  <compound>
COC(=O)c1cc2[nH]cnc2c(-c2ccccc2)n1

>  <target.or.test.system>
GABA-A receptor; anion channel

>  <pKi>
5.00

$$$$

Please report the recorded pKi for NC(=O)c1cc2c3ccccc3nc-2c[nH]1 .
7.17

----------
// values below are reported pKi
target.or.test.system: GABA-A receptor; anion channel
method.summary: In vitro inhibition of [3H]diazepam binding to rat cerebral cortical membrane benzodiazepine receptors
pKi: −log10 of the molar value.

Please review the entries below; each comes with its answer.
>  <compound>
COC(=O)C1Cc2[nH]cnc2C(c2c(CO)cnc(C)c2O)N1 (stereo not drawn)

>  <pKi>
< 4.30

$$$$
>  <compound>
O=C(O)C1Cc2[nH]cnc2C(c2ccccc2)N1 (cis isomer)

>  <pKi>
< 4.30

$$$$

Look up pKi: O=C(O)C1Cc2[nH]cnc2CN1 (stereo not drawn)
< 4.30
